Assay: Stability in RPMI 1640 cell culture medium
Assay type: physicochemical
Conditions: RPMI 1640 cell culture medium
Reported endpoint: remaining at 0 h (%)

[
  {
    "Compound": "Oc1ccc(/C=C/c2cc(O)cc(O)c2)cc1 [Resveratrol, 3,5,4′-trihydroxystilbene, reference compound]",
    "Measured result": 100
  }
]

====

Test: Stability in RPMI 1640 cell culture medium
Format: physicochemical
Conditions: buffer

[
  {
    "Molecule": "O=S(=O)([O-])Oc1ccc(/C=C/c2cc(O)cc(O)c2)cc1.[K+] [compound 7, Resveratrol Potassium 4′-Sulfate]",
    "Quantity unit": "%",
    "remaining at 24 h": 98.8
  }
]

====

Assay: Stability in RPMI 1640 cell culture medium
Type: physicochemical
Conditions: buffer
Reported endpoint: remaining at 12 h (%)

[
  {
    "Compound": "O=S(=O)([O-])Oc1ccc(/C=C/c2cc(O)cc(O)c2)cc1.[K+] [compound 7, Resveratrol Potassium 4′-Sulfate]",
    "Measured result": 95.1
  }
]

====

Experiment: Stability in RPMI 1640 cell culture medium
Format: physicochemical
Conditions: RPMI 1640 cell culture medium
Reported endpoint: remaining at 24 h (%)

[
  {
    "Compound": "Oc1ccc(/C=C/c2cc(O)cc(O)c2)cc1 [Resveratrol, 3,5,4′-trihydroxystilbene, reference compound]",
    "Reported endpoint": "remaining at 24 h",
    "Measured result": 46.8
  }
]

Provenance of the data: paper PMC2917805
